Assay: Phase 1 study LXBA, multiple-dose steady-state plasma PK in healthy subjects
Type: in vivo, human
Conditions: human, in vivo; steady state, 200 mg BID, tau = 12 hours, geometric mean; read-out: AUC(0-τ)
value.kind: AUC (ng·h/mL)
Give your result in ng·h/mL as a bare value.

QUERY: // lookup AUC for Cc1cccnc1OCC(C)(C)NC(=O)[C@H]1[C@@H]2CNC[C@@H]21.O=C(O)C(O)C(O)C(=O)O
RESULT: 11500

* * *

Assay: Phase 1 study LXBA, multiple-dose steady-state plasma PK in healthy subjects
Type: in vivo, human
Conditions: human, in vivo; steady state, 200 mg BID, = 2 × AUC(0-τ); read-out: AUC(0-24)
value.kind: AUC(0-t) (ng·h/mL)
Field format: number, assumed ng·h/mL, no unit text.

QUERY: Which AUC(0-t) reading was recorded for the molecule Cc1cccnc1OCC(C)(C)NC(=O)[C@H]1[C@@H]2CNC[C@@H]21.O=C(O)C(O)C(O)C(=O)O ?
RESULT: 23000

* * *

Experiment: Phase 1 study LXBA, multiple-dose steady-state plasma PK in healthy subjects
Format: in vivo, human
Details: human, in vivo; steady state, 600 mg BID, tau = 12 hours, geometric mean; read-out: AUC(0-τ)
value.kind: AUC (ng·h/mL)
Entry rule: numbers only, all in ng·h/mL.

QUERY: Look at this molecule and give its reported AUC. Cc1cccnc1OCC(C)(C)NC(=O)[C@H]1[C@@H]2CNC[C@@H]21.O=C(O)C(O)C(O)C(=O)O
RESULT: 38700

* * *

Assay: Phase 1 study LXBA, multiple-dose steady-state plasma PK in healthy subjects
Assay type: in vivo, human
Conditions: human, in vivo; steady state, 200 mg BID (400 mg), n = 6, geometric mean
value.kind: Cmax (µg/mL)
Quick reminder: number only, in µg/mL, skip the unit.

QUERY: Look up Cmax for this compound: Cc1cccnc1OCC(C)(C)NC(=O)[C@H]1[C@@H]2CNC[C@@H]21.O=C(O)C(O)C(O)C(=O)O [Example 5]
RESULT: 1.62

* * *

Assay: Phase 1 study LXBA, multiple-dose steady-state plasma PK in healthy subjects
Assay type: in vivo, human
Conditions: human, in vivo; steady state, 600 mg BID (1200 mg), n = 6, geometric mean
value.kind: Cmax (ng/mL)
Numeric answer only, unit ng/mL assumed.

QUERY: Fill in the blank: the reported Cmax of Cc1cccnc1OCC(C)(C)NC(=O)[C@H]1[C@@H]2CNC[C@@H]21.O=C(O)C(O)C(O)C(=O)O is ____.
RESULT: 5210

* * *

Experiment: Phase 1 study LXBB, single-dose pharmacokinetics in healthy subjects
Type: in vivo, human
Settings: human, in vivo
value.kind: Tmax

QUERY: Requested read-out: Tmax. Entry: Cc1cccnc1OCC(C)(C)NC(=O)[C@H]1[C@@H]2CNC[C@@H]21.O=C(O)C(O)C(O)C(=O)O [Example 5]
RESULT: 2 to 3 h

* * *

Test: Phase 1 study LXBA, multiple-dose steady-state plasma PK in healthy subjects
Format: in vivo, human
Settings: human, in vivo; steady state, 400 mg BID, = 2 × AUC(0-τ); read-out: AUC(0-24)
value.kind: AUC(0-t) (ng·h/mL)
Report the value in ng·h/mL with no unit label.

QUERY: Which measured AUC(0-t) value corresponds to Cc1cccnc1OCC(C)(C)NC(=O)[C@H]1[C@@H]2CNC[C@@H]21.O=C(O)C(O)C(O)C(=O)O ?
RESULT: 51000

All values here come from patent US20240307349A1.
